target: C-C chemokine receptor type 5 (Homo sapiens, UniProt P51681)
Sequence (P51681 whole entry): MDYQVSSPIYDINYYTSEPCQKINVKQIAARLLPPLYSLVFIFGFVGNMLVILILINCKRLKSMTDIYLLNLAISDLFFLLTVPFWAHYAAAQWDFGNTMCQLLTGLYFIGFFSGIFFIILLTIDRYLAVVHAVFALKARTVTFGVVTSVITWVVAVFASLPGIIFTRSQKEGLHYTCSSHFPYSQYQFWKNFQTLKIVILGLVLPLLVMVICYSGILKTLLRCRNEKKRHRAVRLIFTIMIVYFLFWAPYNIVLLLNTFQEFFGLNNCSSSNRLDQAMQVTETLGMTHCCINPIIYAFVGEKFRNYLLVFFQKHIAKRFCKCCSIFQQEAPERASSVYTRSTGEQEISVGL
PROPERTY NAME: IC50 (µM)

| MOL SMILES | IC50, µM |
| --- | --- |
| CCO[C@H]1COCC[C@H]1N[C@@H]1CC[C@@](C(=O)N2CCN(c3cccc(C(F)(F)F)c3)CC2)(C(C)C)C1 | 0.206 |

A = CC(C)[C@]1(C(=O)N2CCN(c3cccc(C(F)(F)F)c3)CC2)CC[C@@H](N[C@@H]2CCOC[C@@H]2C)C1
B = CO[C@@H]1COCC[C@@H]1N[C@@H]1CC[C@](CC(F)(F)F)(C(=O)N2CCN(c3cc(C(F)(F)F)ccn3)CC2)C1
C = COC[C@@H]1COCC[C@@H]1N[C@@H]1CC[C@@](C(=O)N2CCN(c3cccc(C(F)(F)F)c3)CC2)(C(C)C)C1
D = COC[C@H]1COCC[C@H]1N[C@@H]1CC[C@@](C(=O)N2CCN(c3cccc(C(F)(F)F)c3)CC2)(C(C)C)C1
QUERY: Falling order of IC50, please. Give your ranking as a list of the labels in the requested order.
RESULT: D, C, A, B
(D: 0.572 µM, C: 0.201 µM, A: 0.108 µM, B: 0.0084 µM)
